Biological target: T1, HumanB7-H4 (Homo sapiens, UniProt Q7Z7D3)
T1 construct: Human B7H4 ECD; FLAG; 10His; made in house
T1 sequence (Q7Z7D3 25-259 limits assumed): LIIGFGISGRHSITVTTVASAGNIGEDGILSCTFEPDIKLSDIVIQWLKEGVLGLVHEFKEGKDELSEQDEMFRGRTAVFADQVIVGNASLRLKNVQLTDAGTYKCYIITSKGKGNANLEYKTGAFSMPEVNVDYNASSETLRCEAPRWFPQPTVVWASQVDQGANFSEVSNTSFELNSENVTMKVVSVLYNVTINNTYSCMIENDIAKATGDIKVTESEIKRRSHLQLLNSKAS
Assay: ForteBio Octet affinity
Assay type: binding
Details: hIgG1 (n = 1)
property name: kdis (s⁻¹)
Numbers only here, please. The scale is s⁻¹.

Some solved cases for reference:
molecule	kdis (s⁻¹)
ZY0EOB-F05: anti-B7-H4 antibody clone, VH SEQ ID NO: 35, VL SEQ ID NO: 36 (antibody, V domains shown) VH: QVQLQESGPGLVKPSQTLSLTCTVSDGSISSGGYYWSWIRQHPGKGLEWIGNIYYSGSTYYNPSLKSRVTISVDTSKNQFSLKLNSVTAADTAVYYCATEKALATVTPSGYENYYTVDVWGQGTTVTVSS VL: DIQLTQSPSFLSASVGDRVTITCWASQGISSYLAWYQQKPGKAPKLLIYAASTLQSGVPSRFSGSGSGTEFTLTISSLQPEDFATYYCQHLNSYPLTFGGGTKVEIK	0.000362
ZY0EPQ-E02: anti-B7-H4 antibody clone, VH SEQ ID NO: 31, VL SEQ ID NO: 32 (antibody, V domains shown) VH: QVQLQQWGAGLLKPSETLSLTCAVYGGSFSGYYWNWIRQPPGKGLEWIGEINHSGSTNYNPSLKSRVTILVDTSKNQFSLKLSSVTAADTAVYYCARNLYNWNLDSWGQGTLVTVSS VL: DIQMTQSPSSLSASVGDRVTITCRASQGIRNDLGWYQQKPGRAPKRLIYVASSLQSGVPSRFSGSGSGTEFTLTISSLQPEDFATYYCLQHNSYPRTFGQGTKVEIK	0.00208

Next:
The reported value for ZY0EQD-E02: anti-B7-H4 antibody clone, VH SEQ ID NO: 33, VL SEQ ID NO: 34 (antibody, V domains shown) VH: QVQLQQWGAGLLKPSETLSLTCAVYGGSFSGYYWNWIRQPPGKGLEWIGEINHSGSTSYNPSLKSRVTISVDTSKNQFSLKLSSVTAADTAVYYCARVLYNWNVDSWGQGTLVTVSS VL: DIQMTQSPSSLSASVGDRVTITCRASQDIRNDVGWYQQKPGKAPKRLIYAASRLQSGVPSRFSGSGSGTEFTLTISSLQPEDFATYYCLQHNSYPRTFGQGTKVEIK in terms of kdis is 0.00321

Attribution: patent US20240239894A1
